Listed next: entries and their corresponding log10 of kon.
molecular target: T1, human transferrin receptor 1 (human, UniProt P02786 89-760, limits assumed); assay: Carterra LSA SPR array, IgG captured on anti-IgG lawn, hTfR1 as analyte, 25 C, 1:1 Langmuir fit
T1 construct: also called hTfR1; huTfR1
T1 sequence (P02786 89-760 limits assumed): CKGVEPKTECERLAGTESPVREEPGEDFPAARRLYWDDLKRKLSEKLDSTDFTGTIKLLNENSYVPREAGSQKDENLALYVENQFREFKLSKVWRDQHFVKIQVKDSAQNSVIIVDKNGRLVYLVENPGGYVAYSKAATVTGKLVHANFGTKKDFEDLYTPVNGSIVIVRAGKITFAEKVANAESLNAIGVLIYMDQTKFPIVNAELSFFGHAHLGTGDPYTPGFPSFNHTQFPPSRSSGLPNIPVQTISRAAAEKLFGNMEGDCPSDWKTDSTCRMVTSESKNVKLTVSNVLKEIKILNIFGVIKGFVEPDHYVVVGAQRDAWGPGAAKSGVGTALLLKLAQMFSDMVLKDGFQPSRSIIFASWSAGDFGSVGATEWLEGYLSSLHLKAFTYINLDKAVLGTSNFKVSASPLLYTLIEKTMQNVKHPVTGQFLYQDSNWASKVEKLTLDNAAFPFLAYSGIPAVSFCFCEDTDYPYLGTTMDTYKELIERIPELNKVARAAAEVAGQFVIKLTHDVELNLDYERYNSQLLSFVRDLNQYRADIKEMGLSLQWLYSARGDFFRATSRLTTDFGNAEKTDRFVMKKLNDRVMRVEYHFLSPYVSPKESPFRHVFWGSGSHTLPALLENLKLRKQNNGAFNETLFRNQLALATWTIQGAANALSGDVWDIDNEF
A value of 2 here means kon of 100 in M⁻¹ s⁻¹, since values are log10.

// worked examples, log10 of kon included
9-C4 (antibody, V domains shown, Tested as a mouse monoclonal IgG; also called 9-C04) VH: EVQLMESGGDLVKPGGSLKLSCAASGFTFSSYGLSWVRQTPDKRLEWVATITSGGSYTYYPDSVKGRFTISRDNARNTLYLQMFSLKSEDTAMYYCALWSLDYWGQGTTLTVSS VL: QIVLTQSPAIMSASPGEKVTMTCSANSSLSYMHWYQQKPGTSPKRWIYDTSELASGVPARFSGSGSGTSYSLTISSMEAEDAATYYCHQRRSYPWTFGGGTKLEIK ... 4.61
8-O17 (antibody, V domains shown, Tested as a mouse monoclonal IgG) VH: QVQLKESGPGLVAPSQSLSITCTVSGFSLTNYGVHWVRQPPGKGLEWLVVIWNDGSATYNSALESRLSISKDNSKSQVFLKMNSLQTDDTAMYYCARHESSNPFAYWGQGTLVTVSA VL: DILLTQSPAILSVSPGERVSFSCRASQSIGTSIHWYQQRTNGSPRLLIKSASESIAGIPSRFSGSGSGTDFTLSINSVESEDIADYYCQQNNRWPYTFGGGTKLEIK ... 4.70
10-H2 (antibody, V domains shown, Tested as a mouse monoclonal IgG; also called 10-H02) VH: EVQLVESGGDLVKPGGSLKLSCAASGFTFSDYGMHWVRQGPEKGLEWVAYINSGSSTIYYADTVKGRFTISRDNAKNTLFLQMTSLRSEDTAMYYCARPGDYDNYAMDYWGQGTSVTVSS VL: DIVMTQSHKFLSTSVGDRVSITCKASQDVSVAVAWYQQKPGQSPKLLIYWAYTRHTGVPDRFTGSGSGTEYTLTISSVQAEDLALYYCQQHYNTPPWTFGGGTKLEIK ... 5.10
3-A4 (antibody, V domains shown, Tested as a mouse monoclonal IgG; also called 3-A04) VH: EVQLQQSGAELVRPGASVKLSCTASGFNIKDDYMYWVKQRPEQGLEWIGWIDPENGDTEYASKFQDKATVTADTSSNTAYLQLSSLTSEDTAVYYCTLWLRRGLDYWGQGTSVTVSS VL: DIVMTQAAPSVPVTPGESVSISCRSSKSLLHSNGYTYLFWFLQRPGQSPQLLIYRMSNLASGVPDRFSGSGSGTAFTLRISRVEAEDVGVYYCMQHLEYPFTFGGGTKLEIK ... 5.65
4-C5 (antibody, V domains shown, Tested as a mouse monoclonal IgG; also called 4-C05) VH: QVQLQQSGAELMKPGASVKISCKATGYTFSNYWIEWVKQRPGHGLEWIGEILPGSGSTNYNENFKGKATFTADTSSNTAYMQLSSLTSEDSAVYYCARRGAYGNFHYWGQGTTLTVSS VL: EIVLTQSPALMAASPGEKVTITCSVSSSISSSNLHWYQQKSETSPKPWIYGTSNLASGVPVRFSGSGSGTSYSLTISSMEAEDAATYYCQQWRSYPYTFGGGTKLEIK ... 4.48

Here is the next item to consider.
Exercise: I have this binder here, 9-K23 (antibody, V domains shown, Tested as a mouse monoclonal IgG) VH: QVTLKESGPGMLQPSQTLSLTCSFSGFSLNTYDVGVGWIRQPSGKGLEWLANIWWNDDKYYNSALKSRLTISKDTSNNQVFLKISSVDTADTATYYCTLYSYDGGFAYWGQGTLVTVSA VL: QIVLTQSPAIMSASLGERVTMTCTASSSVSSSYLHWYQQKPGSSPKLWIYSTSNLASGVPARFSGSGSGTSYSLTISSMEAEDAATYYCHQYHRSPYTFGGGTKLEIK , and I need its recorded log10 of kon.
Solution: 4.73
